test: Solubility of roxithromycin forms in buffer media and water, excess solid, 37 degrees Celsius, 24 h, HPLC assay; format: physicochemical; conditions: 37 °C, thermodynamic from solid; distilled water, 37 degrees Celsius, 24 h
experimental endpoint: solubility at 24 h
Give me the value, and tack the unit on after it.

Returns the measured solubility at 24 h for the input compound. Input: CC[C@H]1OC(=O)[C@H](C)[C@@H](O[C@H]2C[C@@](C)(OC)[C@@H](O)[C@H](C)O2)[C@H](C)[C@@H](O[C@@H]2O[C@H](C)C[C@H](N(C)C)[C@H]2O)[C@](C)(O)C[C@@H](C)/C(=N\OCOCCOC)[C@H](C)[C@@H](O)[C@]1(C)O [Form-III, roxithromycin]
8.6 µg/mL

* * *

assay: Solubility of roxithromycin forms in buffer media and water, excess solid, 37 degrees Celsius, 24 h, HPLC assay; type: physicochemical; conditions: 37 °C, aqueous buffer, thermodynamic from solid; acetate buffer (pH 4.5), 37 degrees Celsius, 24 h
experimental endpoint: solubility at 24 h (µg/mL)
Output spec: scalar in µg/mL, unitless text.

Suppose we examine the molecule CC[C@H]1OC(=O)[C@H](C)[C@@H](O[C@H]2C[C@@](C)(OC)[C@@H](O)[C@H](C)O2)[C@H](C)[C@@H](O[C@@H]2O[C@H](C)C[C@H](N(C)C)[C@H]2O)[C@](C)(O)C[C@@H](C)/C(=N\OCOCCOC)[C@H](C)[C@@H](O)[C@]1(C)O [Form-III, roxithromycin] ; what solubility at 24 h value has been reported?
1150
